growth inhibition reference
- procedure text: NCI Yeast Anticancer Drug Screen. Data for the mlh1 rad18 strain (AID 175)
- condition: S. cerevisiae mlh1 rad18 strain growth inhibition; at 50.0 µM; hits give high values
About 79,000 compounds went through this panel and 15% of them were active in at least one assay; those are over-represented in the sample as a whole.
measure: growth inhibition (%)

[[record]]
compound = "O=C1c2ccccc2C(=O)N1CCc1ncc(-c2ccccc2)[nH]1"
measure = "growth inhibition"
measured = 1.9

[[record]]
compound = "CN1C(=O)C(/C=N/NC(=O)c2cccnc2)C(N)N(C)C1=O (stereo not given)"
measure = "growth inhibition"
measured = 31.7

[[record]]
compound = "N#CC1CCCC(c2ccccc2)(C2CCCCC2)C1=O (stereo not given)"
measure = "growth inhibition"
measured = -0.9

[[record]]
compound = "O=c1[nH]nc(-c2ccccc2)n1/N=C/c1ccncc1"
measure = "growth inhibition"
measured = 22.7

[[record]]
compound = "CN[C@H]1CC[C@]23C[C@]24CC[C@]2(C)[C@@H]([C@H](C)N(C)C)CC[C@@]2(C)[C@@H]4CC[C@H]3C1(C)C"
measure = "growth inhibition"
measured = -63.8

